This collection of values is drawn from the RNAGym collection of RNA variant scans (doi:10.1073/pnas.2313332121).

# polymerase ribozyme fitness (log ratio) per record follows
B1: TPR 5TU (parent)
chain: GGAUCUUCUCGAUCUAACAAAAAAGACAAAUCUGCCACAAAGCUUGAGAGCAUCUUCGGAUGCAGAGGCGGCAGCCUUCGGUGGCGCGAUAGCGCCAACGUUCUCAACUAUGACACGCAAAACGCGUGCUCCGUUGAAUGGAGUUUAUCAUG

Variants of: B1
method summary: polymerase ribozyme fitness, log enrichment relative to wild type (log ratio); higher = more active; in vitro selection for triplet polymerase activity
Variants at the floor of the assay were thinned out.

- sequence variant: "U55A C93G G141C"
  measurement: -3.82
- sequence variant: "U13A C14G A19U U53A U55A G86C U135A"
  measurement: "≤ -4.2"

# variant A40U G48C C69G C85U ; its polymerase ribozyme fitness (log ratio) = -1.48

# variant C18A A20U G71C G92C G143U U144G ; its polymerase ribozyme fitness (log ratio) = ≤ -4.2

# variant A40G A41U A49U G58C G74U C85A U139G G141C U148C ; its polymerase ribozyme fitness (log ratio) = ≤ -4.2

# variant A91G U145G ; its polymerase ribozyme fitness (log ratio) = -3.96

# variant C87U C93G A121U C132A ; its polymerase ribozyme fitness (log ratio) = ≤ -4.2

# variant C125U A147U ; its polymerase ribozyme fitness (log ratio) = -1.83

# variant C8A A17U A23U A26G C27G U90G G92A A115C ; its polymerase ribozyme fitness (log ratio) = ≤ -4.2
